# target.desc: Cytochrome P450 1A2 (Homo sapiens) (UniProt P05177)
# Sequence (P05177 whole entry, looked up): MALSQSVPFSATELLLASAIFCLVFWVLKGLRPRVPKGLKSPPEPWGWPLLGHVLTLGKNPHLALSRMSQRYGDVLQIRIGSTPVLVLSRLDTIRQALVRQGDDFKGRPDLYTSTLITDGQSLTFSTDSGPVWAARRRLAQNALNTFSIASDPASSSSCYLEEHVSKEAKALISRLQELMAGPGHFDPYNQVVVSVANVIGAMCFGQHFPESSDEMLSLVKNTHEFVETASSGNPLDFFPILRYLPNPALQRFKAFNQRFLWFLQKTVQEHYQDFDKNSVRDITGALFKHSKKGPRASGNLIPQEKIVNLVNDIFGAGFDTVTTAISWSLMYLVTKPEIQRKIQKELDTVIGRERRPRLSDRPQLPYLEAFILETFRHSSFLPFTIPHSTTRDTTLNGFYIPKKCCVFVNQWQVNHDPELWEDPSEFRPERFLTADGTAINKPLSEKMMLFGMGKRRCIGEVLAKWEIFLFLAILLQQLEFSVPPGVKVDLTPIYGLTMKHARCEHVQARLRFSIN
# experiment.summary: p450-cyp1a2 (AID 410)
# condition.details: recombinant CYP1A2, luciferin-ME demethylation, luminescence; series mostly up to 11.4 µM
Results filed as inconclusive are left out. Calls of active or inactive are those of the source. Calls follow the shape of the full dose curve.
Classes used: active, inactive

{"compound": "Nc1nc(Nc2ccccc2)nc2c1ncn2[C@@H]1O[C@@H](CO)[C@H](O)[C@@H]1O", "group": "active"}
{"compound": "O=C(Nc1cccc2ccccc12)c1ccccc1", "group": "active"}
{"compound": "N=C(N)c1ccc(-c2ccc(-c3ccc(C(=N)N)cc3)o2)cc1", "group": "inactive"}
{"compound": "COc1ccc2c(c1)CCC1C2CC[C@]2(C)[C@H](NCCCCCCN3C(=O)C=CC3=O)CC[C@@H]12 (stereo not given in full)", "group": "inactive"}
{"compound": "C[C@@H]1C[C@H]2[C@H]3C[C@@H](F)C4=CC(=O)C=C[C@]4(C)[C@@]3(Cl)[C@@H](O)C[C@@]2(C)[C@@H]1C(=O)COC(=O)C(C)(C)C", "group": "inactive"}
